# assayed.system: Recombinant canine IL-31 produced in CHO cells (canine)
# Sequence (chain, as listed by the source limits assumed, form in doubt): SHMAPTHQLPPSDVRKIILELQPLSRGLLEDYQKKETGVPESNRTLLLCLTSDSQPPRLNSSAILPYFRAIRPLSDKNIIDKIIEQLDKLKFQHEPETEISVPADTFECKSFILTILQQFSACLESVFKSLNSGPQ
# test: cell-based or functional assay
recorded.endpoint: DH82 pSTAT Assay, Co-incubation IC50 (µg/ml)
Enter your answer as a number in µg/ml; do not include the unit.

• Chimeric 19D07 (antibody, V domains shown) VH: EVKLVESGGGLVKPGGSLKLSCAASGFAFSSYDMSWVRQIPEKRLEWVATITSGGGYTYSADSVKGRFTISRDNARNTLYLQMSSLRSEDTAVYYCARQNWVVGLAYWGQGTLVTVSA VL: DIVMSQSPSSLSVSAGDKVTMSCKSSQSLLNSGNQKNYLAWYQQKPWQPPKLLIYGASTRESGVPDRFTGSGSGTDFTLTISSVQAEDLAVYYCQNDYSYPYTFGGGTKLEIKR = 1.92
• Caninized 11E12 13 (antibody, V domains shown) VH: EVQLVQSGAEVKKPGASVKVSCKTSGYTFKYYDINWVRQAPGAGLDWMGWIFPGDGGTKYNETFKGRVTLTADTSTSTAYMELSSLRAGDIAVYYCARGGTSVIRDAMDYWGQGTLVTVSS VL: DIVMTQTPLSLSVSPGEPASISCRASESVDNYGISFMHWFQQKPGQSPQLLIYRASNLESGVPDRFSGSGSGTDFTLRISRVEADDAGVYYCQQSNKDPLTFGAGTKLEIKR = 5.49
• Chimeric 11E12 (antibody, V domains shown) VH: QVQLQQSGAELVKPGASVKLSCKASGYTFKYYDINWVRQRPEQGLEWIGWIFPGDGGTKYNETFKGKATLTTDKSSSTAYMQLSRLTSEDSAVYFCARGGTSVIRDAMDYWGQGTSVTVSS VL: DIVLTQSPASLAVSLGQRATISCRASESVDNYGISFMHWYQQKPGQPPKLLIYRASNLESGIPARFSGSGSRTDFTLTINPVETDDVATYYCQQSNKDPLTFGAGTKLELKR = 1.48

q: Could you please provide reported DH82 pSTAT Assay, Co-incubation IC50 for Chimeric 34D03 (antibody, V domains shown) VH: EVQLVESGGDLVKPGGSLKLSCAASGFSFSNYGMSWVRQTPDKRLEWVATISYGGSYTYYPDNIKGRFTISRDNAKNTLYLQMSSLKSEDTAMYYCVRGYGYDTMDYWGQGTSVTVSS VL: DILLTQSPASLAVSLGQRAIISCKASQSVSFAGTGLMHWYQQKPGQQPKLLIYRASNLEAGVPTRFSGSGSRTDFTLNIHPVEEEDAATYFCQQSREYPWTFGGGTKLEIKR ? Thanks!
a: 1.28

q: Could you please provide reported DH82 pSTAT Assay, Co-incubation IC50 for Mouse 19D07 (antibody, V domains shown) VH: EVKLVESGGGLVKPGGSLKLSCAASGFAFSSYDMSWVRQIPEKRLEWVATITSGGGYTYSADSVKGRFTISRDNARNTLYLQMSSLRSEDTAVYYCARQNWVVGLAYWGQGTLVTVSA VL: DIVMSQSPSSLSVSAGDKVTMSCKSSQSLLNSGNQKNYLAWYQQKPWQPPKLLIYGASTRESGVPDRFTGSGSGTDFTLTISSVQAEDLAVYYCQNDYSYPYTFGGGTKLEIK ? Thanks!
a: 1.76

q: Could you please provide reported DH82 pSTAT Assay, Co-incubation IC50 for 11E12 Heterochimera (antibody, V domains shown) VH: EVQLVQSGAEVKKPGASVKVSCKTSGYTFKYYDINWVRQAPGAGLDWMGWIFPGDGGTKYNETFKGRVTLTADTSTSTAYMELSSLRAGDIAVYYCARGGTSVIRDAMDYWGQGTLVTVSS VL: DIVLTQSPASLAVSLGQRATISCRASESVDNYGISFMHWYQQKPGQPPKLLIYRASNLESGIPARFSGSGSRTDFTLTINPVETDDVATYYCQQSNKDPLTFGAGTKLELKR ? Thanks!
a: 2.67

q: Could you please provide reported DH82 pSTAT Assay, Co-incubation IC50 for Caninized 34D03 (antibody, V domains shown) VH: EVQLVESGGDLVKPGGSLRLSCVASGFTFSNYGMSWVRQAPGKGLQWVATISYGGSYTYYPDNIKGRFTISRDNAKNTLYLQMNSLRAEDTAMYYCVRGYGYDTMDYWGQGTLVTVSS VL: EIVMTQSPASLSLSQEEKVTITCKASQSVSFAGTGLMHWYQQKPGQAPKLLIYRASNLEAGVPSRFSGSGSGTDFSFTISSLEPEDVAVYYCQQSREYPWTFGQGTKLEIKR ? Thanks!
a: 2.42
